# experimental system: T1, BANP BEN-DBD (human, UniProt Q8N9N5 205-519)
# T1 sequence: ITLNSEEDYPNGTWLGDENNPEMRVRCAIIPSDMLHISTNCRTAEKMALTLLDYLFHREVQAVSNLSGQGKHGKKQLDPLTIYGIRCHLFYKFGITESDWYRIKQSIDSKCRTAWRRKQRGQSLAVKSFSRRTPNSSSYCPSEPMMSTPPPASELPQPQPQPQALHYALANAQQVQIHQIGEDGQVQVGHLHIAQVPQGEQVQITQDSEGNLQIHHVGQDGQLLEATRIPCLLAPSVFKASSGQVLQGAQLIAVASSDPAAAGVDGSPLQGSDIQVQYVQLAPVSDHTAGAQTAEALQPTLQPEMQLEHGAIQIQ
# measurement description: ITC; ITC: 20 mM Tris pH 7.5, 200 mM NaCl, 2 mM beta-mercaptoethanol, 20 C; EMSA: 20 mM Tris pH 7.0, 200 mM NaCl, 2 mM DTT, 4 C, 1.2% agarose in TAE
# run parameters: protein: recombinant; tags: His-SUMO or His-MBP, cleaved; blunt, self-complementary
So I've got a bunch of binders here, and I need their Kd values.
Give bare numbers, in µM.

- binder: "12-mCGCG (dsDNA, 5-methyl-C at position 5 of each strand (palindrome; called hemi-methylated, one CpG methylated)) DNA 1: ATCTCGCGAGAT DNA 2: ATCTCGCGAGAT"
  readout unit: "µM"
  Kd: 8.3

Let us examine a further case.
Give the measured Kd of 12-CGCG (dsDNA) DNA 1: ATCTCGCGAGAT DNA 2: ATCTCGCGAGAT .
3.1
